target: human NEP (Homo sapiens, UniProt P08473); construct: purchased R&D Systems, Minneapolis, Minn; 1182-ZN; test: In vitro enzyme inhibition assay at human NEP (fluorogenic peptide substrate); format: biochemical; conditions: recombinant human NEP; substrate Mca-D-Arg-Arg-Leu-Dap-(Dnp)-OH 10 μM; 37° C.; values given as ranges; read-out: pKi values at human NEP (converted)
Sequence (P08473 whole entry): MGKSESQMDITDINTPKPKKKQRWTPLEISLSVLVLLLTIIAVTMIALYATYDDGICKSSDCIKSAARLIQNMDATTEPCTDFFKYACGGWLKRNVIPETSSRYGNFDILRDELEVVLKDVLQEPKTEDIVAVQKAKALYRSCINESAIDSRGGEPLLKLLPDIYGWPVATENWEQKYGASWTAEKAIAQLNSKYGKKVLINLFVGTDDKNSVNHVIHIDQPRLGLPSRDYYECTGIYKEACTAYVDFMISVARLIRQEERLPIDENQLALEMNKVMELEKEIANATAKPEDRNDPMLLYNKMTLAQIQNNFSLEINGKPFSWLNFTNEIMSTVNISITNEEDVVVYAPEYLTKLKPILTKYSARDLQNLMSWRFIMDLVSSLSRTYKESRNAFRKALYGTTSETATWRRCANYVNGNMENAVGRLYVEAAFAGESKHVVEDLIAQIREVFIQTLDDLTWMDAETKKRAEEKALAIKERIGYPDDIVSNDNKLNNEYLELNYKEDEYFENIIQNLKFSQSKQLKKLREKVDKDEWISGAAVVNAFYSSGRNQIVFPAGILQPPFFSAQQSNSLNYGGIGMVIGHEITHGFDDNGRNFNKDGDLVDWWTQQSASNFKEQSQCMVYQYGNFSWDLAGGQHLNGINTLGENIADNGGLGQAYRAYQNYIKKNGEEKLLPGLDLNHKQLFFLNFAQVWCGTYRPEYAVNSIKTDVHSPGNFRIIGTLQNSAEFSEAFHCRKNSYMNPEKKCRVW
# Ki per entry

Compound	Measure Name	Result
O=C(N[C@H](Cc1ccccc1)[C@@H](O)C(=O)O)c1cc(C(=O)O)n(Cc2ccccc2)n1 [Example 8-8]	Ki	1.26 to 10 nM

CNC(=O)c1cc(C(=O)N[C@H](Cc2ccccc2C(F)(F)F)[C@@H](O)C(=O)O)n[nH]1 [Example 6-5] yielded Ki of 12.6 to 100 nM

Noted for COc1ccc(Cn2nc(C(=O)N[C@H](Cc3ccccc3Cl)[C@@H](O)C(=O)O)cc2C(C)=O)cc1 [Example 2-70] : its Ki reads 1.26 to 10 nM

###

target: human NEP (Homo sapiens); construct: purchased R&D Systems, Minneapolis, Minn; 1182-ZN; test: In vitro enzyme inhibition assay at human NEP (fluorogenic peptide substrate); format: biochemical; conditions: recombinant human NEP; substrate Mca-D-Arg-Arg-Leu-Dap-(Dnp)-OH 10 μM; 37° C.; values given as ranges; read-out: pKi values at human NEP (converted)
Measure Name: Ki

Example results:
Substance Smiles	Ki
O=C(N[C@H](Cc1ccccc1Cl)[C@@H](O)C(=O)O)c1cc(C(=O)O)n(Cc2ccc(OC(F)(F)F)cc2)n1	≤ 1 nM
O=C(N[C@H](Cc1ccccc1Cl)[C@@H](O)C(=O)O)c1cc(C(=O)O)n(Cc2ccc(Cl)cc2)n1	1.26 to 10 nM
COc1ccc(Cn2cc(C(=O)N[C@H](Cc3ccccc3Cl)[C@@H](O)C(=O)O)cn2)c(F)c1F	1.26 to 10 nM

The record that follows has no Ki shown yet.
Hey, human NEP (Homo sapiens) data for O=C(N[C@H](Cc1ccccc1)[C@@H](O)C(=O)O)c1cc(C(=O)O)n(Cc2ccc(Cl)cc2)n1 : Ki came out at 1.26 to 10 nM

###

Measured Ki values are reported for all entries that follow.
target: human NEP (Homo sapiens, UniProt P08473); construct: purchased R&D Systems, Minneapolis, Minn; 1182-ZN; assay: In vitro enzyme inhibition assay at human NEP (fluorogenic peptide substrate); format: biochemical; details: recombinant human NEP; substrate Mca-D-Arg-Arg-Leu-Dap-(Dnp)-OH 10 μM; 37° C.; values given as ranges; read-out: pKi values at human NEP (converted)

Example cases with answers are listed next.
Substance Smiles	Subject Of Test	Ki
O=C(N[C@H](Cc1ccccc1Cl)[C@@H](O)C(=O)O)c1cc(C(=O)O)n(Cc2cccc(Cl)c2)n1	human NEP (Homo sapiens, UniProt P08473)	1.26 to 10 nM
O=C(N[C@H](Cc1ccccc1Cl)[C@@H](O)C(=O)O)c1cc(NC(=O)c2ccccc2Cl)[nH]n1	human NEP (Homo sapiens, UniProt P08473)	12.6 to 100 nM
COCCn1nc(C(=O)N[C@H](Cc2ccccc2)[C@@H](O)C(=O)O)cc1C(=O)O	human NEP (Homo sapiens, UniProt P08473)	12.6 to 100 nM
O=C(O)C[C@@H](Cc1ccccc1Cl)NC(=O)c1cc(C(=O)O)n(Cc2ccncc2)n1	human NEP (Homo sapiens, UniProt P08473)	12.6 to 100 nM
COc1ccc(Cn2nc(C(=O)N[C@@H](CC(=O)O)Cc3ccccc3Cl)cc2C(=O)O)cc1	human NEP (Homo sapiens, UniProt P08473)	12.6 to 100 nM
COc1c(F)c(F)c(Cn2nc(C(=O)N[C@H](Cc3ccccc3)[C@@H](O)C(=O)O)cc2C2CC2)c(F)c1F	human NEP (Homo sapiens, UniProt P08473)	≤ 1 nM

Would you kindly look at the next entry?
The measured Ki associated with COc1ccccc1-c1cc(C(=O)N[C@H](Cc2ccccc2Cl)[C@@H](O)C(=O)O)[nH]n1 reads 12.6 to 100 nM

###

biological target: human NEP (Homo sapiens); construct: purchased R&D Systems, Minneapolis, Minn; 1182-ZN; assay: In vitro enzyme inhibition assay at human NEP (fluorogenic peptide substrate); format: biochemical; conditions: recombinant human NEP; substrate Mca-D-Arg-Arg-Leu-Dap-(Dnp)-OH 10 μM; 37° C.; values given as ranges; read-out: pKi values at human NEP (converted)
This section presents molecules with their documented Ki values.

Substance Smiles	Result
COc1c(F)c(F)c(Cn2nc(C(C)=O)cc2C(=O)N[C@H](Cc2ccccc2Cl)[C@@H](O)C(=O)O)c(F)c1F	≤ 1 nM

Proceeding to the next molecule to report its Ki.
// sample O=C(N[C@H](Cc1ccccc1Cl)[C@@H](O)C(=O)O)c1cc(-c2cnccn2)[nH]n1 , its Ki was 12.6 to 100 nM

###

Entries and their Ki
biological target: human NEP (Homo sapiens); construct: purchased R&D Systems, Minneapolis, Minn; 1182-ZN; assay: In vitro enzyme inhibition assay at human NEP (fluorogenic peptide substrate); type: biochemical; details: recombinant human NEP; substrate Mca-D-Arg-Arg-Leu-Dap-(Dnp)-OH 10 μM; 37° C.; values given as ranges; read-out: pKi values at human NEP (converted)

Example results:
Substance Smiles	Ki
CCn1nc(C(=O)N[C@H](Cc2ccccc2)[C@@H](O)C(=O)O)cc1C(=O)O	0.0126 to 0.1 µM
CCCCc1cc(C(=O)N[C@H](Cc2ccccc2Cl)[C@@H](O)C(=O)O)[nH]n1	0.0126 to 0.1 µM
O=C(N[C@H](Cc1ccccc1Cl)[C@@H](O)C(=O)O)c1cc(C(=O)O)n(Cc2c(F)cccc2F)n1	0.00126 to 0.01 µM
O=C(N[C@H](Cc1ccccc1Cl)[C@@H](O)C(=O)O)c1cc(C(=O)O)n(Cc2ccc(OC(F)(F)F)c(F)c2)n1	≤ 0.001 µM
O=C(N[C@H](Cc1ccccc1)[C@@H](O)C(=O)O)c1cc(C(=O)O)n(CCO)n1	0.0126 to 0.1 µM

So the reported Ki for Cc1ccc(Cn2nc(C(=O)N[C@@H](CC(=O)O)Cc3ccccc3Cl)cc2C(=O)O)cc1 , on human NEP (Homo sapiens), turned out to be 0.0126 to 0.1 µM

Param item: O=C(N[C@H](Cc1ccccc1)[C@@H](O)C(=O)O)c1cc(C(=O)O)n(Cc2cccc(F)c2)n1 ; param system: human NEP (Homo sapiens); output Ki: 0.00126 to 0.01 µM

Lab note: molecule CN(C)C(=O)c1cc(C(=O)N[C@H](Cc2ccccc2)[C@@H](O)C(=O)O)nn1Cc1ccc(Cl)cc1 tested on human NEP (Homo sapiens); recorded Ki was 0.0126 to 0.1 µM

###

biological target: human NEP (Homo sapiens, UniProt P08473); construct: purchased R&D Systems, Minneapolis, Minn; 1182-ZN; experiment: In vitro enzyme inhibition assay at human NEP (fluorogenic peptide substrate); format: biochemical; conditions: recombinant human NEP; substrate Mca-D-Arg-Arg-Leu-Dap-(Dnp)-OH 10 μM; 37° C.; values given as ranges; read-out: pKi values at human NEP (converted)
Measure Name: Ki

Below: 3 molecules and their reported Ki.
Substance Smiles	Subject Of Test	Result
CCOc1ncc(Cn2nc(C(=O)N[C@H](Cc3ccccc3)[C@@H](O)C(=O)O)cc2C2CC2)cn1	human NEP (Homo sapiens, UniProt P08473)	12.6 to 100 nM
O=C(N[C@H](Cc1ccccc1Cl)[C@@H](O)C(=O)O)c1cc(C(=O)O)n(Cc2ccc(Cl)cc2C(F)(F)F)n1	human NEP (Homo sapiens, UniProt P08473)	12.6 to 100 nM
CCCCCCn1nc(C(=O)N[C@@H](CC(=O)O)Cc2ccccc2Cl)cc1C(=O)O	human NEP (Homo sapiens, UniProt P08473)	12.6 to 100 nM

Kindly note the recorded Ki for COc1ccc(Cn2ccc(C(=O)N[C@H](Cc3ccccc3Cl)[C@@H](O)C(=O)O)n2)c(F)c1 , which is 1.26 to 10 nM

###

molecular target: human NEP (Homo sapiens); construct: purchased R&D Systems, Minneapolis, Minn; 1182-ZN; experiment: In vitro enzyme inhibition assay at human NEP (fluorogenic peptide substrate); format: biochemical; conditions: recombinant human NEP; substrate Mca-D-Arg-Arg-Leu-Dap-(Dnp)-OH 10 μM; 37° C.; values given as ranges; read-out: pKi values at human NEP (converted)
Reported Ki is given for each of the following compounds.

// below: answered compounds
Substance Smiles	Ki
O=C(O)C[C@@H](Cc1ccccc1Cl)NC(=O)c1cc(C(=O)O)n(CC(=O)O)n1	12.6 to 100 nM
O=C(N[C@H](Cc1ccccc1Cl)[C@@H](O)C(=O)O)c1cc(-c2ccc3ccccc3c2)[nH]n1	12.6 to 100 nM
O=C(N[C@H](Cc1ccccc1)[C@@H](O)C(=O)O)c1cc(C(=O)N2CCOCC2)n(Cc2ccc(Cl)cc2)n1	12.6 to 100 nM

Now turn to the next compound.
O=C(N[C@H](Cc1ccccc1Cl)[C@@H](O)C(=O)O)c1cc(C(=O)O)[nH]n1 yielded Ki of 1.26 to 10 nM
